In this section, each of the compounds is paired with its reported inhibition at 50 µM.
Tested on: Enterococcus faecalis
runDescription: Antibacterial activity against Enterococcus faecalis ATCC 29212 assessed as bacterial growth inhibition at 50 uM incubated for 24 hrs by CLSI protocol based broth microdilution assay relative to control
Assay type: functional

givenSmiles	unitsLabel	inhibition at 50 µM
CCn1cc(C(=O)O)c(=O)c2ccc(NC(=O)c3[nH]c(C)c(Cl)c3Cl)cc21	%	99
Cc1[nH]c(C(=O)Nc2ccc(C(=O)N[C@H](C)C(=O)NN)cc2OC(C)C)c(Cl)c1Cl	%	85
Cc1[nH]c(C(=O)Nc2ccc(-n3nn[nH]c3=O)cc2)c(Cl)c1Cl	%	99
N#CCNC(=O)c1ccc(NC(=O)c2cc(Br)c(Br)[nH]2)cc1	%	7
Cc1[nH]c(C(=O)Nc2ccc(S(=O)(=O)NCC(=O)O)cc2)c(Cl)c1Cl	%	9
Cc1[nH]c(C(=O)Nc2ccc(S(N)(=O)=O)cc2)c(Cl)c1Cl	%	6
Cc1[nH]c(C(=O)Nc2ccc3[nH]c(C(=O)O)cc3c2)c(Cl)c1Cl	%	54
CCOC(=O)c1cn(CC)c2cc(NC(=O)c3[nH]c(C)c(Cl)c3Cl)ccc2c1=O	%	-7
COC(=O)[C@@H](C)NC(=O)c1ccc(NC(=O)c2[nH]c(C)c(Cl)c2Cl)c(OC(C)C)c1	%	-41

###

In this section, each of the molecules is paired with its reported pIC50.
measurementTarget: DNA gyrase (Staphylococcus aureus, UniProt P0A0K8+P20831)
Sequence (P0A0K8 whole entry): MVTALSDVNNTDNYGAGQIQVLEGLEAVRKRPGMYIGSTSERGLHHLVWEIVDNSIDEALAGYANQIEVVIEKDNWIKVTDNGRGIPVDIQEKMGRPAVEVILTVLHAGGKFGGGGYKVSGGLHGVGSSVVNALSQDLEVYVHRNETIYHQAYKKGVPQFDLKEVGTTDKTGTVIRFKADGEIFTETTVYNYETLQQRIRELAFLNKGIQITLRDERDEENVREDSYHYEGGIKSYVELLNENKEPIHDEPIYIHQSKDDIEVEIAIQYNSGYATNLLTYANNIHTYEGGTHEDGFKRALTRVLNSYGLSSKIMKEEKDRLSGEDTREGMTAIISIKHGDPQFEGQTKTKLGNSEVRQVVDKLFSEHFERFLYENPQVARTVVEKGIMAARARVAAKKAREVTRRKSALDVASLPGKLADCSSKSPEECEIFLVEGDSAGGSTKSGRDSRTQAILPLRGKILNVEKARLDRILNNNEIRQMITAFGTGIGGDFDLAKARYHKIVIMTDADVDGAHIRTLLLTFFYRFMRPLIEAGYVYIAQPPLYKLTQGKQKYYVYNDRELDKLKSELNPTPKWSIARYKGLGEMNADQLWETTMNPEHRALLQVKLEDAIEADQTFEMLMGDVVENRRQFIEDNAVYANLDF
Sequence (P20831 whole entry): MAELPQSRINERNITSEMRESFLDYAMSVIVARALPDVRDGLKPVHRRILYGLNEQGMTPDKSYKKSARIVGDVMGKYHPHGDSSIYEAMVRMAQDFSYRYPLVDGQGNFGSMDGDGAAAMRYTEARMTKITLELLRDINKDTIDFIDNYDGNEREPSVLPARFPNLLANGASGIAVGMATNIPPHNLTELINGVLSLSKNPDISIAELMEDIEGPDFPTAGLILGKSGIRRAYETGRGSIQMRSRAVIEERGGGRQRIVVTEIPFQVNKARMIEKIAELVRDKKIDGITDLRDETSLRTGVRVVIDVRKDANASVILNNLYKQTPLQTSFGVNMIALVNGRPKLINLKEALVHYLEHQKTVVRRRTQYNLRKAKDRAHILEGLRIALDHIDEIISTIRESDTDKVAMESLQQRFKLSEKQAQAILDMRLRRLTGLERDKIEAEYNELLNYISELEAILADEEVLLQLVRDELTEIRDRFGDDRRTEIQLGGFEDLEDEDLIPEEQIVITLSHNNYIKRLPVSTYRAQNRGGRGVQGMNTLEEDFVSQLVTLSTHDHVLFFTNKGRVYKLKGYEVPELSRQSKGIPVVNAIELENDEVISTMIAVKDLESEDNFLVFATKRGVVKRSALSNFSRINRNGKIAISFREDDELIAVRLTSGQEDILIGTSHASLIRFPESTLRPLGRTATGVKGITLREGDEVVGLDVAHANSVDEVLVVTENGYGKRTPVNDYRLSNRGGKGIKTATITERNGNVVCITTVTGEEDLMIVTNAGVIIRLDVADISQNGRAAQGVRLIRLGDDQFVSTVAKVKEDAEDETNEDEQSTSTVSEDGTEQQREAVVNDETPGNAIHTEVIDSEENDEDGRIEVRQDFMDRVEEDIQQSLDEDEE
runDescription: Inhibition of Staphylococcus aureus DNA gyrase using biotinylated oligonucleotide as substrate incubated for 30 mins in presence of ATP by fluorescence-based microplate reader assay
pIC50: −log10 of the molar value.

givenSmiles	pIC50
Cc1[nH]c(C(=O)Nc2ccc(C(=O)NCC(=O)O)cc2O[C@H]2CCNC2)c(Cl)c1Cl	6.54
Cc1[nH]c(C(=O)Nc2ccc(C(=O)NCC(=O)O)cc2OC2CCNCC2)c(Cl)c1Cl	6.02
COC(=O)[C@H](C)NC(=O)c1ccc(NC(=O)c2[nH]c(C)c(Cl)c2Cl)c(OC2CCNCC2)c1	5.80
Cc1[nH]c(C(=O)Nc2ccc(C(=O)NCC(=O)O)cc2OC2CCN(C(=O)OC(C)(C)C)CC2)c(Cl)c1Cl	6.00
Cc1[nH]c(C(=O)Nc2ccc(C(=O)N[C@@H](C)C(=O)O)cc2OC2CCNCC2)c(Cl)c1Cl	7.00
COC(=O)CNC(=O)c1ccc(NC(=O)c2[nH]c(C)c(Cl)c2Cl)c(O[C@H]2CCNC2)c1	6.02

###

measurementTarget: Topoisomerase IV (Staphylococcus aureus, UniProt P0C1S7+P0C1U9)
runDescription: Inhibition of Staphylococcus aureus DNA topoisomerase 4 using biotinylated oligonucleotide as substrate incubated for 30 mins in presence of ATP by fluorescence-based microplate reader assay
Please note: IC50 exactly at 4 µM is 0 (no). Only values below 4 µM get 1 (yes).

givenSmiles	label
Cc1[nH]c(C(=O)Nc2ccc(C(=O)NCC(=O)O)cc2OC2CCN(C(=O)OC(C)(C)C)CC2)c(Cl)c1Cl	0 (no)
COC(=O)[C@H](C)NC(=O)c1ccc(NC(=O)c2[nH]c(C)c(Cl)c2Cl)c(OC2CCNCC2)c1	1 (yes)
Cc1[nH]c(C(=O)Nc2ccc(C(=O)N[C@H](C)C(=O)O)cc2OC2CCNCC2)c(Cl)c1Cl	1 (yes)
Cc1[nH]c(C(=O)Nc2ccc(C(=O)N[C@@H](C)C(=O)O)cc2OC2CCNCC2)c(Cl)c1Cl	1 (yes)
Cc1[nH]c(C(=O)Nc2ccc(C(=O)NCC(=O)O)cc2OC2CCNCC2)c(Cl)c1Cl	1 (yes)
Cc1[nH]c(C(=O)Nc2ccc(C(=O)N[C@@H](C)C(=O)O)cc2OC2CCN(C(=O)OC(C)(C)C)CC2)c(Cl)c1Cl	1 (yes)
Cc1[nH]c(C(=O)Nc2ccc(C(=O)NCC(=O)O)cc2O[C@H]2CCNC2)c(Cl)c1Cl	0 (no)

###

Test system: Escherichia coli
runDescription: Antibacterial activity against Escherichia coli ATCC 25922 assessed as bacterial growth inhibition at 50 uM incubated for 24 hrs by CLSI protocol based broth microdilution assay relative to control
Assay type: functional
In this section, each of the compounds is paired with its reported inhibition at 50 µM.

givenSmiles	inhibition at 50 µM / %
COC(=O)CNC(=O)c1ccc(NC(=O)c2[nH]c(C)c(Cl)c2Cl)c(OC2CCN(C(=O)OC(C)(C)C)CC2)c1	26
CCOC(=O)C(NC(=O)c1ccc(NC(=O)c2[nH]c(C)c(Cl)c2Cl)cc1)C(=O)OCC	13
Cc1[nH]c(C(=O)Nc2ccc(C(=O)N[C@H](C)C(=O)O)cc2OC2CCNCC2)c(Cl)c1Cl	1
Cc1[nH]c(C(=O)Nc2ccc(S(N)(=O)=O)cc2)c(Cl)c1Cl	13
Cc1[nH]c(C(=O)Nc2ccc(C(=O)NS(C)(=O)=O)cc2)c(Cl)c1Cl	15
COC(=O)CNC(=O)c1ccc(NC(=O)c2[nH]c(C)c(Cl)c2Cl)c(O[C@H]2CCNC2)c1	4
COC(=O)CNC(=O)c1ccc(NC(=O)c2[nH]c(C)c(Cl)c2Cl)c(O[C@H]2CCN(C(=O)OC(C)(C)C)C2)c1	10
Cc1[nH]c(C(=O)Nc2ccc(C(=O)NCC(=O)O)cc2OC2CCN(C(=O)OC(C)(C)C)CC2)c(Cl)c1Cl	9
COC(=O)CNS(=O)(=O)c1ccc(NC(=O)c2[nH]c(C)c(Cl)c2Cl)cc1	18

###

measurementTarget: DNA gyrase (Staphylococcus aureus) (UniProt P0A0K8+P20831)
runDescription: Inhibition of Staphylococcus aureus DNA gyrase assessed as residual activity at 1 uM using biotinylated oligonucleotide as substrate incubated for 30 mins in presence of ATP by fluorescence-based microplate reader assay relative to control
Assay type: protein-complex assay

givenSmiles	Activity / %
Cc1[nH]c(C(=O)Nc2ccc(C(=O)N[C@H](C)c3n[nH]c(=S)o3)cc2OC(C)C)c(Cl)c1Cl	59
Cc1[nH]c(C(=O)Nc2ccc(-n3nn[nH]c3=O)cc2)c(Cl)c1Cl	47
Cc1[nH]c(C(=O)Nc2ccc(C(=O)N[C@H](C)C(=O)O)cc2OC2CCNCC2)c(Cl)c1Cl	31
Cc1[nH]c(C(=O)Nc2ccc(C(=O)N[C@H](C)C(=O)O)cc2OC2CCN(C(=O)OC(C)(C)C)CC2)c(Cl)c1Cl	68
Cc1[nH]c(C(=O)Nc2ccc(C(=O)NS(C)(=O)=O)cc2)c(Cl)c1Cl	55

###

In this section, each of the compounds is paired with its reported pIC50.
measurementTarget: DNA gyrase (Escherichia coli, UniProt P0AES4+P0AES6)
runDescription: Inhibition of Escherichia coli DNA gyrase using biotinylated oligonucleotide as substrate incubated for 30 mins in presence of ATP by fluorescence-based microplate reader assay
Assay type: protein-complex assay
pIC50: −log10 of the molar value.
readout: pIC50

givenSmiles	measurementTarget	readout	numericReadout
Cc1[nH]c(C(=O)Nc2ccc(C(=O)N[C@@H](C)C(=O)O)cc2OC2CCN(C(=O)OC(C)(C)C)CC2)c(Cl)c1Cl	DNA gyrase (Escherichia coli, UniProt P0AES4+P0AES6)	pIC50	7.10
O=C(O)CNC(=O)c1ccc(NC(=O)c2cc(Br)c(Br)[nH]2)c(OC2CCNCC2)c1	DNA gyrase (Escherichia coli, UniProt P0AES4+P0AES6)	pIC50	7.70
COC(=O)CNC(=O)c1ccc(NC(=O)c2[nH]c(C)c(Cl)c2Cl)c(O[C@H]2CCNC2)c1	DNA gyrase (Escherichia coli, UniProt P0AES4+P0AES6)	pIC50	7.13
COC(=O)[C@@H](C)NC(=O)c1ccc(NC(=O)c2[nH]c(C)c(Cl)c2Cl)c(OC2CCNCC2)c1	DNA gyrase (Escherichia coli, UniProt P0AES4+P0AES6)	pIC50	7.32
Cc1[nH]c(C(=O)Nc2ccc(C(=O)NS(C)(=O)=O)cc2)c(Cl)c1Cl	DNA gyrase (Escherichia coli, UniProt P0AES4+P0AES6)	pIC50	6.80
Cc1[nH]c(C(=O)Nc2ccc(C(=O)NCC(=O)O)cc2O[C@H]2CCN(C(=O)OC(C)(C)C)C2)c(Cl)c1Cl	DNA gyrase (Escherichia coli, UniProt P0AES4+P0AES6)	pIC50	7.04
Cc1[nH]c(C(=O)Nc2ccc(C(=O)N[C@H](C)c3n[nH]c(=S)o3)cc2OC(C)C)c(Cl)c1Cl	DNA gyrase (Escherichia coli, UniProt P0AES4+P0AES6)	pIC50	6.72
Cc1[nH]c(C(=O)Nc2ccc(C(=O)N[C@H](C)C(=O)O)cc2OC2CCN(C(=O)OC(C)(C)C)CC2)c(Cl)c1Cl	DNA gyrase (Escherichia coli, UniProt P0AES4+P0AES6)	pIC50	7.15
CC(C)(C)OC(=O)N1CCC(Oc2cc(C(=O)NCC(=O)O)ccc2NC(=O)c2cc(Br)c(Br)[nH]2)CC1	DNA gyrase (Escherichia coli, UniProt P0AES4+P0AES6)	pIC50	6.20
Cc1[nH]c(C(=O)Nc2ccc(C(=O)N[C@H](C)C(=O)O)cc2OC2CCNCC2)c(Cl)c1Cl	DNA gyrase (Escherichia coli, UniProt P0AES4+P0AES6)	pIC50	8.16
Cc1[nH]c(C(=O)Nc2ccc(C(=O)NCC(=O)O)cc2OC2CCN(C(=O)OC(C)(C)C)CC2)c(Cl)c1Cl	DNA gyrase (Escherichia coli, UniProt P0AES4+P0AES6)	pIC50	7.07
CCn1cc(C(=O)O)c(=O)c2ccc(NC(=O)c3[nH]c(C)c(Cl)c3Cl)cc21	DNA gyrase (Escherichia coli, UniProt P0AES4+P0AES6)	pIC50	5.85
Cc1[nH]c(C(=O)Nc2ccc3[nH]c(C(=O)O)cc3c2)c(Cl)c1Cl	DNA gyrase (Escherichia coli, UniProt P0AES4+P0AES6)	pIC50	7.01
N#CCNC(=O)c1ccc(NC(=O)c2cc(Br)c(Br)[nH]2)cc1	DNA gyrase (Escherichia coli, UniProt P0AES4+P0AES6)	pIC50	6.02
Cc1[nH]c(C(=O)Nc2ccc(C(=O)N[C@@H](C)C(=O)O)cc2OC2CCNCC2)c(Cl)c1Cl	DNA gyrase (Escherichia coli, UniProt P0AES4+P0AES6)	pIC50	8.00
CCOC(=O)C(NC(=O)c1ccc(NC(=O)c2[nH]c(C)c(Cl)c2Cl)cc1)C(=O)OCC	DNA gyrase (Escherichia coli, UniProt P0AES4+P0AES6)	pIC50	5.11
Cc1[nH]c(C(=O)Nc2ccc(C(=O)NCC#N)cc2)c(Cl)c1Cl	DNA gyrase (Escherichia coli, UniProt P0AES4+P0AES6)	pIC50	6.39
Cc1[nH]c(C(=O)Nc2ccc(C(=O)NCC(=O)O)cc2OC2CCNCC2)c(Cl)c1Cl	DNA gyrase (Escherichia coli, UniProt P0AES4+P0AES6)	pIC50	7.77
Cc1[nH]c(C(=O)Nc2ccc(C(=O)NCC(=O)O)cc2O[C@H]2CCNC2)c(Cl)c1Cl	DNA gyrase (Escherichia coli, UniProt P0AES4+P0AES6)	pIC50	7.51
Cc1[nH]c(C(=O)Nc2ccc(-n3nn[nH]c3=O)cc2)c(Cl)c1Cl	DNA gyrase (Escherichia coli, UniProt P0AES4+P0AES6)	pIC50	7.11
CCOC(=O)c1cn(CC)c2cc(NC(=O)c3[nH]c(C)c(Cl)c3Cl)ccc2c1=O	DNA gyrase (Escherichia coli, UniProt P0AES4+P0AES6)	pIC50	7.28
COC(=O)[C@H](C)NC(=O)c1ccc(NC(=O)c2[nH]c(C)c(Cl)c2Cl)c(OC2CCNCC2)c1	DNA gyrase (Escherichia coli, UniProt P0AES4+P0AES6)	pIC50	7.40
